# Test system: MOR
# test: Guinea pig isolated ileum (GPI) functional assay
# Format: cell-based
Non-standard residues stand in square brackets, D forms with d. Residues, ends and D or L forms follow the SMILES beside them. *: point of attachment. NH(3,5-(CF3)2-benzyl) = FC(F)(F)c1cc(CN*)cc(C(F)(F)F)c1; NMePhe(4-F) = CN[C@@H](Cc1ccc(F)cc1)C(=O)O; Dmt = Cc1cc(O)cc(C)c1C[C@H](N)C(=O)O
metric name: GPI/MVD IC50 ratio

{"columns": ["compound", "experimental target", "metric name", "recorded result"],
 "data": [
  ["Cc1cc(O)cc(C)c1C[C@H](N)C(=O)N[C@H](C)C(=O)NCC(=O)N(C)[C@@H](Cc1ccc(F)cc1)C(=O)N[C@@H](CO)C(=O)N1CCC[C@H]1C(=O)N[C@@H](CC(C)C)C(=O)N[C@@H](Cc1c[nH]c2ccccc12)C(=O)NCc1cc(C(F)(F)F)cc(C(F)(F)F)c1 [AKG135] (H-[Dmt][dA]G[NMePhe(4-F)]SPLW-{NH(3,5-(CF3)2-benzyl)}; N-terminus assumed)", "MOR", "GPI/MVD IC50 ratio", "2/1"]
]}
